test system: ZIKV strain MR766; test: ZIKV strain MR766 infection, 4G2 antibody flow cytometry; conditions: Zika virus, read-out: IC50, ZIKV infection
Recorded IC50 values for a group of compounds are listed next.
Just the number in nM, nothing appended.

COMPOUND: COc1cc2c(O)c3c(c(-c4ccc5c(c4)OCO5)c2cc1OC)C(=O)OC3
UNITS_SYMBOL: nM
IC50: 210

Here is the next item to consider.
q: Test system ZIKV strain MR766; read-out IC50; what value for COc1cc2c(OC3OC(C)C(O)C(O)C3O)c3c(c(-c4ccc5c(c4)OCO5)c2cc1OC)C(=O)OC3 (centres unmarked) ?
a: 40
